Data provenance: ChEMBL document CHEMBL1201862

Recorded GI50 values for a group of compounds are listed next.
Test system: HCC 2998
PROCEDURE SUMMARY: NCI tumour cell line growth inhibition, 48 h
Calls of active or inactive are those of the source. Rule as the data show it: active = GI50 up to about 1.1 µM and inactive = higher.
EXPERIMENTAL ENDPOINT: GI50

COMPOUND: N#C/C(=C/NC(=S)Nc1ccc(S(N)(=O)=O)cc1)C(N)=O
EXPERIMENTAL RESULT: > 100 µM (inactive)

COMPOUND: COC(=O)C(=O)c1cc2ccccc2n1S(=O)(=O)c1ccccc1
EXPERIMENTAL RESULT: > 100 µM (inactive)

COMPOUND: COc1cc2[nH]c3c(c2cc1OC)CCN[C@@]31CC[C@@]2(CC3c4c(cc(OC)c(O)c42)CCN3C)C[C@@H]1OC (stereo partly drawn)
EXPERIMENTAL RESULT: 31.9 µM (inactive)

---

System: BT-549
PROCEDURE SUMMARY: NCI tumour cell line growth inhibition, 48 h
Activity calls are given as the source filed them. Rule as the data show it: active = GI50 up to about 1.1 µM and inactive = higher.

COMPOUND: Oc1c(Br)cc(/C=C/c2ccnc(/C=C/c3cc(Br)c(O)c(Br)c3)c2)cc1Br
GI50: 33.4 µM (inactive)
//
COMPOUND: C(=N\OCCc1ccccc1)/c1cccnc1
GI50: > 100 µM (inactive)
//
COMPOUND: CC(SC(=S)N1CCOCC1)C(=O)Nc1nnc(-c2ccc(Cl)cc2)o1 (centres undefined)
GI50: > 100 µM (inactive)
//
COMPOUND: CCOC(=O)CCc1ccc(NC(=O)/C=C/c2ccc([N+](=O)[O-])o2)cc1
GI50: 2.66 µM (inactive)
//
COMPOUND: COC(=O)c1cc(C)ccc1C1CN=NC12Cc1c(C)cc(C)cc1C2=O (centres undefined)
GI50: 24.7 µM (inactive)
//
COMPOUND: S=C1N=C2C(=N1)n1c3c(c4ccccc41)CCCC23 (centres undefined)
GI50: 59.2 µM (inactive)
//
COMPOUND: CCOC(=O)c1sc(N)nc1N1CCCC1
GI50: > 100 µM (inactive)
//
COMPOUND: COC(=O)C1CC2C=CC1N(C(=O)OCc1ccccc1)C2 (centres undefined)
GI50: > 100 µM (inactive)
//
COMPOUND: Oc1c2cccc1Cc1cccc3c1OCCOCCOCCOCCOc1c(cccc1Cc1cccc(c1O)C3)C2
GI50: > 100 µM (inactive)
//
COMPOUND: CCCCCCOP(=O)(OCCCCCC)OC(C(=O)OC)C(F)(F)F (centres undefined)
GI50: > 100 µM (inactive)
//
COMPOUND: CC(CC(C)[C@H]1CCC2[C@H]3C(CC(=O)[C@@]21C)[C@@]1(C)CCC(O)C[C@H]1C[C@@H]3O)C(=O)O (some centres undefined)
GI50: > 100 µM (inactive)
//
COMPOUND: O=c1oc2cc(O)ccc2c(O)c1C(c1ccccc1F)c1c(O)c2ccc(O)cc2oc1=O
GI50: 11.3 µM (inactive)
//
COMPOUND: O=C(O)/C=C\C(=O)Nc1ccc2c(c1)C(=O)c1cc(F)ccc1-2
GI50: > 100 µM (inactive)
//
COMPOUND: Nc1n[nH]c(N)n1 [GUANAZOLE]
GI50: > 6490 µM (inactive)

---

Test system: CCRF-CEM
PROCEDURE SUMMARY: NCI tumour cell line growth inhibition, 48 h
Calls of active or inactive are those of the source. No stated cut-off is given here; in the data, active = GI50 up to about 1.1 µM and inactive = higher.
Possible outcomes: 1 (yes) (active), 0 (no) (inactive)

COMPOUND: C=C1C(=O)C23C(O)CC4C(C)(C)CCC(O)C4(C)C2CC(OC(C)=O)C1[C@H]3O (some centres undefined)
TESTED TARGET: CCRF-CEM
GROUP LABEL: 1 (yes)

COMPOUND: Nc1c(-c2ccc(-c3c(N)[n+]([O-])c4ccccc4[n+]3[O-])cc2)[n+]([O-])c2ccccc2[n+]1[O-]
TESTED TARGET: CCRF-CEM
GROUP LABEL: 0 (no)

COMPOUND: O=C1c2cccnc2-c2nccc3c2c1nc1cc(Br)ccc13
TESTED TARGET: CCRF-CEM
GROUP LABEL: 1 (yes)

COMPOUND: Cc1cc2c(ccc[n+]2[O-])[n+]([O-])c1
TESTED TARGET: CCRF-CEM
GROUP LABEL: 0 (no)

COMPOUND: C=CC(=O)NC(O)(C(=O)OCC)C(F)(F)F (centres undefined)
TESTED TARGET: CCRF-CEM
GROUP LABEL: 0 (no)

COMPOUND: C=C1C(=O)O[C@H]2C[C@@]3(C)[C@H](O)CCC(=C)[C@@H]3[C@@H](OC(C)=O)[C@H]12
TESTED TARGET: CCRF-CEM
GROUP LABEL: 1 (yes)

COMPOUND: NC1CCCCC1
TESTED TARGET: CCRF-CEM
GROUP LABEL: 0 (no)

COMPOUND: Cc1nc(SCC(N)=O)c2sc(=S)n(-c3ccccc3)c2n1
TESTED TARGET: CCRF-CEM
GROUP LABEL: 0 (no)

COMPOUND: O=C1/C(=C/c2ccc(Br)s2)NC(=S)N1c1ccccc1
TESTED TARGET: CCRF-CEM
GROUP LABEL: 0 (no)

COMPOUND: CCc1ccccc1N1CCN(C(=O)c2cc(OC)c(OC)c(OC)c2)CC1
TESTED TARGET: CCRF-CEM
GROUP LABEL: 1 (yes)

COMPOUND: CCSCC(=O)N1CCc2c([nH]c3ccccc23)C1=O
TESTED TARGET: CCRF-CEM
GROUP LABEL: 0 (no)

COMPOUND: Cc1[nH]c2ncn(/N=C/c3ccccc3O)c(=N)c2c1Cc1ccccc1
TESTED TARGET: CCRF-CEM
GROUP LABEL: 0 (no)

COMPOUND: Oc1c2cc(Cl)cc1COCc1cc(Cl)cc(c1O)COCc1cc(Cl)cc(c1O)COC2
TESTED TARGET: CCRF-CEM
GROUP LABEL: 0 (no)

COMPOUND: COc1ccc(/C=C2\N=C3NC(=O)C(N4CCCCC4)=C(N)N3C2=O)cc1
TESTED TARGET: CCRF-CEM
GROUP LABEL: 0 (no)

COMPOUND: OC(CCN1CCCCC1)(c1ccccc1)c1ccccc1 [PRIDINOL]
TESTED TARGET: CCRF-CEM
GROUP LABEL: 0 (no)

COMPOUND: CCN(CC)CCCNc1nccc2c(C)c3c(cc12)c1cnccc1n3C
TESTED TARGET: CCRF-CEM
GROUP LABEL: 1 (yes)

COMPOUND: CCC[C@@H](O)C[C@@H]1CCC[C@H](C[C@@H](O)CC)N1C
TESTED TARGET: CCRF-CEM
GROUP LABEL: 0 (no)

COMPOUND: O=C(/C=C\c1ccccc1)N1CCc2ccccc2C1
TESTED TARGET: CCRF-CEM
GROUP LABEL: 0 (no)

COMPOUND: O=C(O)c1ccc(NCc2nc3cc4ccccc4cc3[nH]2)cc1
TESTED TARGET: CCRF-CEM
GROUP LABEL: 0 (no)

COMPOUND: C=CCN(N=O)C(=O)NCCCC(NC(C)=O)C(=O)NCc1ccccc1 (centres undefined)
TESTED TARGET: CCRF-CEM
GROUP LABEL: 0 (no)

COMPOUND: O=C1CCC(c2ccccc2)=NN1c1nsc2ccccc12
TESTED TARGET: CCRF-CEM
GROUP LABEL: 0 (no)

COMPOUND: Cc1n[nH]c(=O)n1/N=C/c1ccc(F)cc1
TESTED TARGET: CCRF-CEM
GROUP LABEL: 0 (no)

COMPOUND: Oc1c2cccc1Cc1cccc3c1OCCOCCOCCOCCOc1c(cccc1Cc1cccc(c1O)C3)C2
TESTED TARGET: CCRF-CEM
GROUP LABEL: 0 (no)

COMPOUND: Cc1c(C(=O)NCCO)[n+]([O-])c2cc(Cl)ccc2[n+]1[O-]
TESTED TARGET: CCRF-CEM
GROUP LABEL: 0 (no)

COMPOUND: O=C(/C=C1\Nc2ccccc2N\C1=C\C(=O)c1ccc(Cl)cc1)c1ccccc1
TESTED TARGET: CCRF-CEM
GROUP LABEL: 0 (no)

COMPOUND: COC(=O)C(CC(C)=O)CS(=O)(=O)CC(=O)C(=O)Nc1cccc([N+](=O)[O-])c1 (centres undefined)
TESTED TARGET: CCRF-CEM
GROUP LABEL: 0 (no)

COMPOUND: COc1ccc(C(CC(=O)c2ccc(O)cc2)C(C(=O)c2ccc(O)cc2)C(c2ccc(OC)cc2)C2C(=O)NC(=S)NC2=O)cc1 (centres undefined)
TESTED TARGET: CCRF-CEM
GROUP LABEL: 0 (no)

COMPOUND: CCOC1NC(=O)Oc2cc3ccccc3cc21 (centres undefined)
TESTED TARGET: CCRF-CEM
GROUP LABEL: 0 (no)

COMPOUND: C=C(C)C1CC=C(C)C(O)([C@@]2(O)C[C@H](C(=C)C)CC=C2C)C1 (some centres undefined)
TESTED TARGET: CCRF-CEM
GROUP LABEL: 0 (no)

COMPOUND: C#CC(C)(C)OC(=O)C(=[N+]=[N-])C(C)=O
TESTED TARGET: CCRF-CEM
GROUP LABEL: 0 (no)

COMPOUND: CN1CCc2cc3c(c4c2C1C(O)c1ccccc1-4)OCO3 (centres undefined)
TESTED TARGET: CCRF-CEM
GROUP LABEL: 0 (no)

COMPOUND: C=CCNC(=O)N(CCC)CCCCC(NC(C)=O)C(=O)NCc1ccccc1 (centres undefined)
TESTED TARGET: CCRF-CEM
GROUP LABEL: 0 (no)

COMPOUND: c1ccc2c(c1)-c1nc3ccccc3cc1C2N1CCOCC1 (centres undefined)
TESTED TARGET: CCRF-CEM
GROUP LABEL: 0 (no)

COMPOUND: CC(=O)Nc1[nH]c(=O)[nH]c(=O)c1N(C(C)=O)C(C)=O
TESTED TARGET: CCRF-CEM
GROUP LABEL: 0 (no)
